# measured-target: MSK1 (Homo sapiens)
# Sequence (O75582 whole entry): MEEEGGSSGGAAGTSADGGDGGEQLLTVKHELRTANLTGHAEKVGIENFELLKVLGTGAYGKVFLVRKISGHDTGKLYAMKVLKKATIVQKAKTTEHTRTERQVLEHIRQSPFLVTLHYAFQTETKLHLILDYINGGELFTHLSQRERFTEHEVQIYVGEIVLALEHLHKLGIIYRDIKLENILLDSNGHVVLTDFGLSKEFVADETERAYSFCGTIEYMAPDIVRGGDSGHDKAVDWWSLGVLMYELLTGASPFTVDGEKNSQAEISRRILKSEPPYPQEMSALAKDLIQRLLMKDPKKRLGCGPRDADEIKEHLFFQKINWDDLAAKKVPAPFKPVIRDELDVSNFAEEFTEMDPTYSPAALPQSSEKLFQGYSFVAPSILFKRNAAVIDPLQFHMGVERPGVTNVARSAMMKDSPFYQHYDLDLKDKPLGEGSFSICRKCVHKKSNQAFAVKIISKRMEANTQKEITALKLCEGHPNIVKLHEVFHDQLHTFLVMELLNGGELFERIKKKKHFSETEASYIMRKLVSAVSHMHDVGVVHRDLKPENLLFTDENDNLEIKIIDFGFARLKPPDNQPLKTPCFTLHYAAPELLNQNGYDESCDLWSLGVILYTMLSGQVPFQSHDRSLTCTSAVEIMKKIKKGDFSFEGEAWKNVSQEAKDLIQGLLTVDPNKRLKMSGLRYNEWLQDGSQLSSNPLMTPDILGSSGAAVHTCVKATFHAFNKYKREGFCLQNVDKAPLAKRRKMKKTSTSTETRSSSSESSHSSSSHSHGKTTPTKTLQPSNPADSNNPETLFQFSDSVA
test-readout: IC50

mol=CC/C(=N\NC(=O)NCc1cccc(O)c1)c1ccc(O)c(C)c1O test_readout=IC50 result="< 0.04 µM"

###

# measured-target: SGK2 (Homo sapiens, UniProt Q9HBY8)
# Sequence (Q9HBY8 whole entry): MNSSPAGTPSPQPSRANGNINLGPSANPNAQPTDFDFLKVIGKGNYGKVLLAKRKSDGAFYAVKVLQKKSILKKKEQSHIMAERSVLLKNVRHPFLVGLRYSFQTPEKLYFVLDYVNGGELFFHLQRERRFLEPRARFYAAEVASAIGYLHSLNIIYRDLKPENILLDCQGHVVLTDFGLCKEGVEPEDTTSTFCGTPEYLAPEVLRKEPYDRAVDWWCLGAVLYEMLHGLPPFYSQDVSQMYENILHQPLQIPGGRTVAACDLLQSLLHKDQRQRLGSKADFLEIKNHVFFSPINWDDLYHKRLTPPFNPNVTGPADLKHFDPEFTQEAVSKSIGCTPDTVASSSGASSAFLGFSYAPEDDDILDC
test-readout: IC50

mol=CC/C(=N\NC(=O)NCc1cccc(O)c1)c1ccc(O)c(C)c1O measured_target="SGK2 (Homo sapiens, UniProt Q9HBY8)" test_readout=IC50 result="< 40 nM"

###

# measured-target: LATS2 (Homo sapiens)
# Sequence (Q9NRM7 553-1088 limits assumed): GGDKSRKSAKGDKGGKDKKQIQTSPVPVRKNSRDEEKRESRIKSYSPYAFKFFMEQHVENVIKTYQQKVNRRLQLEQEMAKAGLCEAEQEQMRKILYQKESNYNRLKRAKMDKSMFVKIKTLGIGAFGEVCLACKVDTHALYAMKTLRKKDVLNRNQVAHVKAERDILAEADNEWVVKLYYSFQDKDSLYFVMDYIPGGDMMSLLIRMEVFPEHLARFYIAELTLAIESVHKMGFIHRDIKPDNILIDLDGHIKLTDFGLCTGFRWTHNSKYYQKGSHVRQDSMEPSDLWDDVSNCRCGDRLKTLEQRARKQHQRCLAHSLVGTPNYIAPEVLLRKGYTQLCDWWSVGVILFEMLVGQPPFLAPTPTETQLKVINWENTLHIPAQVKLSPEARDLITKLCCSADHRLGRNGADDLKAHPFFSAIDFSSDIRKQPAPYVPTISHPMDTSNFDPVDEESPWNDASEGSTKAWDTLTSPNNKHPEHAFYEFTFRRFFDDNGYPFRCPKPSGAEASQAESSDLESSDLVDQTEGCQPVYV
pKi: −log10 of the molar value.
test-readout: pKi

compound="CC/C(=N\\NC(=O)NCc1cccc(O)c1)c1ccc(O)c(C)c1O [GA-017]" result=9.60

###

# measured-target: PKACβ (Homo sapiens)
pIC50: −log10 of the molar value.
test-readout: pIC50

mol=CC/C(=N\NC(=O)NCc1cccc(O)c1)c1ccc(O)c(C)c1O result="> 7.40"

###

# measured-target: LATS2 (Homo sapiens, UniProt Q9NRM7)
test-readout: IC50 (nM)

mol=CC/C(=N\NC(=O)NCc1cccc(O)c1)c1ccc(O)c(C)c1O measured_target="LATS2 (Homo sapiens, UniProt Q9NRM7)" result=3.92
